- System: ADCK3;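 further: KINOMEscan kinase panel screen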
- Construct: gene CABC1
- CONDITION_NOTES: concentration: 1 μM, replicates: in singlicate; n = 1
Classify as follows. Reported %Inh greater than or equal to 10%: 1. Reported %Inh below: 0.

> print(dat)
                                    compound  assayed.target  assigned.category
 1  Cc1c(O)cccc1Nc1ccnc2ccc(C(F)(F)F)cc12.Cl [GW466413]           ADCK3                  0
 2  Cc1cccc(-c2nc(Nc3cccc(C(N)=O)c3)c3ccccc3n2)n1 [GW876019]           ADCK3                  1
 3  CN(C)CCN(C)C(=O)c1cc(-c2ccncc2)c(-c2ccc(Cl)c(O)c2)o1.Cl.Cl [SB-710397]           ADCK3                  1
 4  Cc1cccc(-c2nc(C)cc(Nc3ccncc3)n2)n1 [GSK257997]           ADCK3                  1
 5    CCn1c(-c2ccccn2)nc2cnccc21 [SB-736398]           ADCK3                  1
 6  COC(=O)c1c(-c2ccccc2)c2cc(OC)ccc2c(=O)n1Cc1ccccc1           ADCK3                  0
 7  Cc1csc(-c2nc(Nc3ccncc3)c3ccccc3n2)n1 [GW869640]           ADCK3                  1
 8    Cc1ccccc1-n1cnc2c(N)ncnc21 [SKF-97510]           ADCK3                  0
 9  Cc1cc(-c2ccc3c(c2)CC[C@@H](N[C@@H](C)c2ccccc2)C3)cnc1N.Cl [GW412617]           ADCK3                  1
10  Cc1nnc(-c2ccc3occ(-c4ccc(S(C)=O)cc4)c3c2)[nH]1 (stereo not shown)           ADCK3                  0
11  Cn1ccc2ncnc(Oc3ccc(Nc4nc5ccccc5[nH]4)cc3)c21           ADCK3                  0
12  Fc1cc(Cl)ccc1Nc1ccnc2cc(-c3ccc(CN4CCCCC4)o3)ccc12 [GW560116]           ADCK3                  0
13  CC(=O)Nc1nc2cnc(Nc3cc(NC(=O)c4cccc(CCC#N)c4)ccc3C)nc2s1           ADCK3                  0
14  C[C@@H]1CCCCN1c1cc(-c2ccc3c(N)n[nH]c3c2)nc(N)n1 [GSK2258759]           ADCK3                  1
15  COc1ccccc1-c1ccc2c(NC(=O)C3CC3)n[nH]c2n1 [SB-711239]           ADCK3                  1
16  Cn1ccc2ncnc(Oc3cccc(C(=O)Nc4ccccc4)c3)c21           ADCK3                  0
17  Cc1cccc(-c2nc(Nc3ccncc3)c3ccccc3n2)n1 [GW855857]           ADCK3                  1
18  COc1ccc(CNC(=O)NC2CCN(c3ccnc(Nc4cc(OC)c(OC)c(OC)c4)n3)C2)cc1 (stereo not shown) [GSK1379748]           ADCK3                  1

Cited source: paper PMC5540273
